Kindly supply the reported growth at 0.01 µM values for the records listed here.
- Tested on: Malme-3M
- test.name: Growth inhibition of human MALME-3M cells assessed as cell growth at 10^-8 M by sulforhodamine B assay
- Format: functional
- assay.conditions: read-out: Activity
Give bare numbers, in %.

For orientation, consider the following solved cases.
C/C=C(/C)C(=O)O[C@@H]1CC(C)(C)C[C@H]2C3=CC[C@@H]4[C@@]5(C)CC[C@H](O)C(C)(C)[C@@H]5CC[C@@]4(C)[C@]3(C)CC[C@@]12C(=O)O 94
CC(C)=CC(=O)O[C@@H]1CC(C)(C)C[C@H]2C3=CC[C@@H]4[C@@]5(C)CCC(=O)C(C)(C)[C@@H]5CC[C@@]4(C)[C@]3(C)CC[C@@]12C(=O)O 94
CC1(C)C[C@@H](O)[C@]2(C(=O)O)CC[C@]3(C)C(=CC[C@@H]4[C@@]5(C)C/C(=C\C=C\c6ccccc6)C(=O)C(C)(C)[C@@H]5CC[C@]43C)[C@@H]2C1 92
CC(C)=CC(=O)O[C@@H]1CC(C)(C)C[C@H]2C3=CC[C@@H]4[C@@]5(C)CC[C@H](O)C(C)(C)[C@@H]5CC[C@@]4(C)[C@]3(C)CC[C@@]12C(=O)O 94

Could you now look at the following compound, please?
Input: Report growth at 0.01 µM for C/C=C(/C)C(=O)O[C@@H]1CC(C)(C)C[C@H]2C3=CC[C@@H]4[C@@]5(C)CCC(=O)C(C)(C)[C@@H]5CC[C@@]4(C)[C@]3(C)CC[C@@]12C(=O)O tested on Malme-3M.
Output: 98

###

Kindly supply the reported GI50 values for the records listed here.
- System: NCI-H23
- test.name: Growth inhibition of human NCI-H23 cells by sulforhodamine B assay
- Type: functional
- assay.conditions: read-out: pGI50 (converted)
Answers are plain numbers, in µM.

For orientation, consider the following solved cases.
C/C=C(/C)C(=O)O[C@@H]1CC(C)(C)C[C@H]2C3=CC[C@@H]4[C@@]5(C)CCC(=O)C(C)(C)[C@@H]5CC[C@@]4(C)[C@]3(C)CC[C@@]12C(=O)O 4.57
C/C=C(/C)C(=O)O[C@@H]1CC(C)(C)C[C@H]2C3=CC[C@@H]4[C@@]5(C)CC[C@H](O)C(C)(C)[C@@H]5CC[C@@]4(C)[C@]3(C)CC[C@@]12C(=O)O 2.4
CC1(C)C[C@@H](O)[C@]2(C(=O)O)CC[C@]3(C)C(=CC[C@@H]4[C@@]5(C)C/C(=C\C=C\c6ccccc6)C(=O)C(C)(C)[C@@H]5CC[C@]43C)[C@@H]2C1 3.31
CC(C)=CC(=O)O[C@@H]1CC(C)(C)C[C@H]2C3=CC[C@@H]4[C@@]5(C)CC[C@H](O)C(C)(C)[C@@H]5CC[C@@]4(C)[C@]3(C)CC[C@@]12C(=O)O 7.24

Could you now look at the following compound, please?
Input: # query: GI50 of entry CC(C)=CC(=O)O[C@@H]1CC(C)(C)C[C@H]2C3=CC[C@@H]4[C@@]5(C)CCC(=O)C(C)(C)[C@@H]5CC[C@@]4(C)[C@]3(C)CC[C@@]12C(=O)O
Output: 3.98

###

Kindly supply the reported growth at 1 µM values for the records listed here.
- System: MDA-MB-468
- test.name: Growth inhibition of human MDA-MB-468 cells assessed as cell growth at 10^-6 M by sulforhodamine B assay
- Type: functional
- assay.conditions: read-out: Activity
Give bare numbers, in %.

For orientation, consider the following solved cases.
CC(C)=CC(=O)O[C@@H]1CC(C)(C)C[C@H]2C3=CC[C@@H]4[C@@]5(C)CC[C@H](O)C(C)(C)[C@@H]5CC[C@@]4(C)[C@]3(C)CC[C@@]12C(=O)O 77
C/C=C(/C)C(=O)O[C@@H]1CC(C)(C)C[C@H]2C3=CC[C@@H]4[C@@]5(C)CC[C@H](O)C(C)(C)[C@@H]5CC[C@@]4(C)[C@]3(C)CC[C@@]12C(=O)O 84
CC1(C)C[C@@H](O)[C@]2(C(=O)O)CC[C@]3(C)C(=CC[C@@H]4[C@@]5(C)C/C(=C\C=C\c6ccccc6)C(=O)C(C)(C)[C@@H]5CC[C@]43C)[C@@H]2C1 92
C/C=C(/C)C(=O)O[C@@H]1CC(C)(C)C[C@H]2C3=CC[C@@H]4[C@@]5(C)CCC(=O)C(C)(C)[C@@H]5CC[C@@]4(C)[C@]3(C)CC[C@@]12C(=O)O 74

Input: Report growth at 1 µM for CC(C)=CC(=O)O[C@@H]1CC(C)(C)C[C@H]2C3=CC[C@@H]4[C@@]5(C)CCC(=O)C(C)(C)[C@@H]5CC[C@@]4(C)[C@]3(C)CC[C@@]12C(=O)O tested on MDA-MB-468.
Output: 74

###

- Tested on: DU-145
- test.name: Growth inhibition of human DU145 cells assessed as cell growth at 10^-7 M by sulforhodamine B assay
- Assay type: functional
- assay.conditions: read-out: Activity
quantity: growth at 0.1 µM (%)
Answers are plain numbers, in %.

For orientation, consider the following solved cases.
CC1(C)C[C@@H](O)[C@]2(C(=O)O)CC[C@]3(C)C(=CC[C@@H]4[C@@]5(C)C/C(=C\C=C\c6ccccc6)C(=O)C(C)(C)[C@@H]5CC[C@]43C)[C@@H]2C1 104
CC(C)=CC(=O)O[C@@H]1CC(C)(C)C[C@H]2C3=CC[C@@H]4[C@@]5(C)CC[C@H](O)C(C)(C)[C@@H]5CC[C@@]4(C)[C@]3(C)CC[C@@]12C(=O)O 100
CC(C)=CC(=O)O[C@@H]1CC(C)(C)C[C@H]2C3=CC[C@@H]4[C@@]5(C)CCC(=O)C(C)(C)[C@@H]5CC[C@@]4(C)[C@]3(C)CC[C@@]12C(=O)O 105
C/C=C(/C)C(=O)O[C@@H]1CC(C)(C)C[C@H]2C3=CC[C@@H]4[C@@]5(C)CC[C@H](O)C(C)(C)[C@@H]5CC[C@@]4(C)[C@]3(C)CC[C@@]12C(=O)O 115

Could you now look at the following compound, please?
Input: # query: growth at 0.1 µM of entry C/C=C(/C)C(=O)O[C@@H]1CC(C)(C)C[C@H]2C3=CC[C@@H]4[C@@]5(C)CCC(=O)C(C)(C)[C@@H]5CC[C@@]4(C)[C@]3(C)CC[C@@]12C(=O)O
Output: 107

###

- Tested on: CCRF-CEM
- test.name: Growth inhibition of human CCRF-CEM cells assessed as cell growth at 10^-4 M by sulforhodamine B assay
- Format: functional
- assay.conditions: read-out: Activity
quantity: growth at 100 µM (%)
One number for each entry, in %.

molecule	growth at 100 µM / %
CC(C)=CC(=O)O[C@@H]1CC(C)(C)C[C@H]2C3=CC[C@@H]4[C@@]5(C)CCC(=O)C(C)(C)[C@@H]5CC[C@@]4(C)[C@]3(C)CC[C@@]12C(=O)O	-14

Go through the list and state growth at 100 µM for each entry.
1. C/C=C(/C)C(=O)O[C@@H]1CC(C)(C)C[C@H]2C3=CC[C@@H]4[C@@]5(C)CCC(=O)C(C)(C)[C@@H]5CC[C@@]4(C)[C@]3(C)CC[C@@]12C(=O)O [LANTADENE A]
2. CC(C)=CC(=O)O[C@@H]1CC(C)(C)C[C@H]2C3=CC[C@@H]4[C@@]5(C)CC[C@H](O)C(C)(C)[C@@H]5CC[C@@]4(C)[C@]3(C)CC[C@@]12C(=O)O [Reduced Lantadene B]
3. C/C=C(/C)C(=O)O[C@@H]1CC(C)(C)C[C@H]2C3=CC[C@@H]4[C@@]5(C)CC[C@H](O)C(C)(C)[C@@H]5CC[C@@]4(C)[C@]3(C)CC[C@@]12C(=O)O [Reduced Lantadene A]
4. CC1(C)C[C@@H](O)[C@]2(C(=O)O)CC[C@]3(C)C(=CC[C@@H]4[C@@]5(C)C/C(=C\C=C\c6ccccc6)C(=O)C(C)(C)[C@@H]5CC[C@]43C)[C@@H]2C1

Output:
1. 9
2. -16
3. -2
4. -19

###

- Tested on: SN12C
- test.name: Growth inhibition of human SN12C cells assessed as growth inhibition at 10 uM by sulforhodamine B assay
- Type: functional
- assay.conditions: read-out: GI
quantity: inhibition of growth at 10 µM
Don't forget the unit after the value.

For orientation, consider the following solved cases.
compound	inhibition of growth at 10 µM
CC(C)=CC(=O)O[C@@H]1CC(C)(C)C[C@H]2C3=CC[C@@H]4[C@@]5(C)CCC(=O)C(C)(C)[C@@H]5CC[C@@]4(C)[C@]3(C)CC[C@@]12C(=O)O	57.4%
C/C=C(/C)C(=O)O[C@@H]1CC(C)(C)C[C@H]2C3=CC[C@@H]4[C@@]5(C)CCC(=O)C(C)(C)[C@@H]5CC[C@@]4(C)[C@]3(C)CC[C@@]12C(=O)O [LANTADENE A]	47.6%
CC1(C)C[C@@H](O)[C@]2(C(=O)O)CC[C@]3(C)C(=CC[C@@H]4[C@@]5(C)CC[C@H](O)C(C)(C)[C@@H]5CC[C@]43C)[C@@H]2C1	16.6%
COc1cc(/C=C2\C[C@]3(C)[C@H]4CC=C5[C@@H]6CC(C)(C)C[C@@H](O)[C@]6(C(=O)O)CC[C@@]5(C)[C@]4(C)CC[C@H]3C(C)(C)C2=O)ccc1O	12.5%
CC(C)=CC(=O)O[C@@H]1CC(C)(C)C[C@H]2C3=CC[C@@H]4[C@@]5(C)CC[C@H](O)C(C)(C)[C@@H]5CC[C@@]4(C)[C@]3(C)CC[C@@]12C(=O)O [Reduced Lantadene B]	49.1%

Go through the list and state inhibition of growth at 10 µM for each entry.
1. C/C=C(/C)C(=O)O[C@@H]1CC(C)(C)C[C@H]2C3=CC[C@@H]4[C@@]5(C)CC[C@H](O)C(C)(C)[C@@H]5CC[C@@]4(C)[C@]3(C)CC[C@@]12C(=O)O [Reduced Lantadene A]
2. CC1(C)C[C@@H](O)[C@]2(C(=O)O)CC[C@]3(C)C(=CC[C@@H]4[C@@]5(C)CCC(=O)C(C)(C)[C@@H]5CC[C@]43C)[C@@H]2C1
3. CC1(C)C[C@@H](O)[C@]2(C(=O)O)CC[C@]3(C)C(=CC[C@@H]4[C@@]5(C)C/C(=C\C=C\c6ccccc6)C(=O)C(C)(C)[C@@H]5CC[C@]43C)[C@@H]2C1

Output:
["94.2%", "16.6%", "54.5%"]
